Measurement protocol: Caspase-3 activation activity tested in T47D breast cells done for 24 or 48 hr at 37 degree C
Property label: EC50 (nM)

FC(F)(F)c1ccc(-c2noc(-c3sccc3Cl)n2)cn1: 920
FC(F)(F)c1cc(-c2noc(-c3sccc3Cl)n2)ccc1Cl: 930
FC(F)(F)c1cccc(-c2noc(-c3sccc3Cl)n2)c1: 900
Clc1ccc(-c2noc(-c3sccc3Cl)n2)cn1: 750

I = Clc1ccc(-c2noc(-c3occc3Br)n2)nc1
II = Cc1cc(Cl)ccc1-c1noc(-c2sccc2Cl)n1
III = FC(F)(F)c1ccc(-c2noc(-c3occc3Br)n2)nc1
IV = Cc1ccc(-c2noc(-c3sccc3Cl)n2)cc1
Put the items in order so that reported EC50 rises from first to last. Please reply with the labels ordered as requested. Many thanks.
III, II, I, IV

----------
Measurement protocol: Caspase-3 activation activity tested in T47D breast cells done for 24 or 48 hr at 37 degree C
pEC50: −log10 of the molar value.
Property label: pEC50

Some entries whose results are on file:
Clc1ccc(-c2noc(-c3occc3Cl)n2)nc1: 5.95
Clc1ccsc1-c1nc(-c2ccccc2)no1: 5.55
Clc1ccc(-c2noc(-c3occc3Br)n2)cc1: 5.97

P = FC(F)(F)c1ccc(-c2noc(-c3occc3Br)n2)cc1
Q = Clc1ccc(-c2noc(-c3sccc3Br)n2)cc1
R = FC(F)(F)c1ccc(-c2noc(-c3sccc3Cl)n2)cc1
S = FC(F)(F)c1ccc(-c2noc(-c3occc3Cl)n2)cc1
Hello, I need these entries ordered by pEC50, highest reading first. Thanks! Form entry: ranked labels (order as requested).
S, R, P, Q

----------
Measurement protocol: Caspase-3 activation activity tested in […] cancer cells done for 24 or 48 hr at 37 degree C
pEC50: −log10 of the molar value.
Property label: pEC50

Reported pEC50, compound FC(F)(F)c1ccc(-c2noc(-c3sccc3Cl)n2)cc1 : ____
< 5.00

----------
Measurement protocol: Caspase-3 activation activity tested in HT-29 cancer cells done for 24 or 48 hr at 37 degree C
Property label: EC50 (nM)
Expressed in nM, but write only the number.

Which EC50 value is on record for FC(F)(F)c1ccc(-c2noc(-c3sccc3Cl)n2)cc1 ?
760

----------
Measurement protocol: Caspase-3 activation activity tested in H1299 lung cancer cells done for 24 or 48 hr at 37 degree C
pEC50: −log10 of the molar value.
A collection of compounds and their measured pEC50

Cc1ccc(-c2noc(-c3sccc3Cl)n2)cc1: < 5.00
O=[N+]([O-])c1ccc(-c2noc(-c3occc3Cl)n2)cc1: < 4.40
FC(F)(F)c1cccc(-c2noc(-c3sccc3Cl)n2)c1: < 5.00
Clc1ccc(-c2noc(-c3cccs3)n2)cc1: < 4.40
CCOc1ccsc1-c1nc(-c2ccc(Cl)cc2)no1: < 4.40

For the compound shown here, Clc1ccsc1-c1nc(-c2ccccc2)no1 , give the reported pEC50.
< 4.40

Quick one: pEC50 for Clc1ccc(-c2noc(-c3sccc3Br)n2)cc1 ?
< 5.00

# input compound: FC(F)(F)c1ccc(-c2noc(-c3sccc3Cl)n2)nc1 ; wanted: its pEC50
< 5.00

Record request: pEC50 value, item COc1ccc(-c2noc(-c3sccc3Cl)n2)cc1
< 5.00

Could you tell me which pEC50 is on file for Clc1ccc(-c2noc(-c3ccccc3Cl)n2)cc1 ?
< 4.40

May I ask what pEC50 has been recorded for Clc1ccc(-c2noc(-c3occc3Br)n2)cc1 ?
< 5.00

Look up pEC50: CN(C)c1ccc(-c2noc(-c3sccc3Cl)n2)cc1
< 4.40

I would be grateful if you could share the reported pEC50 for FC(F)(F)c1ccc(-c2noc(-c3occc3Br)n2)nc1 .
< 5.00

Look at this compound and give its reported pEC50. Clc1ccc(-c2noc(-c3ccco3)n2)cc1
< 4.40

Fill in: pEC50 of Clc1ccc(-c2noc(-c3occc3Cl)n2)cc1 is ___
< 5.00

Entry FC(F)(F)c1ccc(-c2noc(-c3sccc3Cl)n2)cn1 has what pEC50?
< 5.00

What value of pEC50 has been recorded for this entry: Clc1ccc(-c2noc(-c3occc3Br)n2)nc1
< 5.00

pEC50 for FC(F)(F)c1ccc(-c2noc(-c3sccc3Cl)n2)cc1 ?
< 4.40

Entry FC(F)(F)c1cc(-c2noc(-c3sccc3Cl)n2)ccc1Cl : reported pEC50 = ?
< 5.00

Look up pEC50 for this compound: Cc1ccc(-c2noc(-c3cccs3)n2)cc1
< 4.40
